- system: ETA receptor (Rattus norvegicus, UniProt P26684)
- Construct: evaluated in isolated rat aortic ring
- Sequence (P26684 21-426): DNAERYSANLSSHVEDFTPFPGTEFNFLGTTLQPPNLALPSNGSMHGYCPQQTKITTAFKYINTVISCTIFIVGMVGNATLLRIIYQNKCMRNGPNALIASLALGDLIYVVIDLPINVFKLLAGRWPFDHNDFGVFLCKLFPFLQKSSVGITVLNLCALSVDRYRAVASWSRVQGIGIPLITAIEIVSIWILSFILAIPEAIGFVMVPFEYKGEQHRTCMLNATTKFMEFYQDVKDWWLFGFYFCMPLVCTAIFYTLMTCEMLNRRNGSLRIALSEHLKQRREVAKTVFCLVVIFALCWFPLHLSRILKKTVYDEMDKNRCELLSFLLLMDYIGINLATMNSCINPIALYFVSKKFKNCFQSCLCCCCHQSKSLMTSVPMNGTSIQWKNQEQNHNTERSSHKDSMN
- assay_notes: In vitro evaluation of inhibitory activity against ETA receptor (isolated rat aortic ring, literature procedure)
- condition_label: telmisartan as control
Each entry below carries its reported Ki.
Value expressed in nM; do not type the unit.

> print(dat)
                                   compound  readout.name  unit.label  assay.result
1  CCCc1nc2c(C)cc(-c3nc4ccccc4n3C)cc2n1Cc1ccc(-c2ccccc2S(=O)(=O)Nc2onc(C)c2C)c(COCC)c1 [Compound 2-3]            Ki          nM           8.8
2  CCOCc1cc(Cn2c(CC)nc3c(C)cc(-c4nc5ccccc5n4C)cc32)ccc1-c1ccccc1S(=O)(=O)Nc1noc(C)c1C [Compound 1-7]            Ki          nM          13.2
3  CCCCc1nc2c(C)cc(-c3nc4ccccc4n3C)cc2n1Cc1ccc(-c2ccccc2S(=O)(=O)Nc2noc(C)c2C)c(COCC)c1 [Compound 1-13]            Ki          nM           7.2
4  CCCc1nc2c(C)cc(-c3nc4ccccc4n3C)cc2n1Cc1ccc(-c2ccccc2S(=O)(=O)Nc2noc(C)c2C)c(COCC)c1 [Compound 1-10]            Ki          nM           6.8

Okay, now this compound:
Lookup: Using the record for CCCCc1nc2c(C)cc(-c3nc4ccccc4n3C)cc2n1Cc1ccc(-c2ccccc2S(=O)(=O)Nc2onc(C)c2C)c(COCC)c1 [Compound 2-5] , report its Ki.
Found: 9.2
